System: MeWo (No NRAS or BRAF mutation)
Assay: MTT cell viability assay, MeWo melanoma
Assay type: cell-based, human
Conditions: Homo sapiens, MeWo, 24 h
pIC50: −log10 of the molar value.
METRIC: pIC50

C=C1C(=O)OC2CC3=C[C@@H](C/C(C)=C/C(OC(=O)C=C(C)C)[C@H]12)OC3=O (stereo partly drawn) [DETD-8] :: < 5.00
C=C1C(=O)OC2CC3=C[C@@H](C/C(C)=C/C(OC(=O)C=C(C)CCC=C(C)C)[C@H]12)OC3=O (stereo partly drawn) [DETD-14] :: < 5.00
C=C1C(=O)OC2CC3=C[C@@H](C/C(C)=C/C(OC(=O)/C=C/c4ccc(C)cc4)[C@H]12)OC3=O (stereo partly drawn) [DETD-27] :: < 5.00
C=C1C(=O)OC2CC3=C[C@@H](C/C(C)=C/[C@@H](OC(=O)Cc4coc5ccccc45)[C@H]12)OC3=O (stereo partly drawn) [DETD-59] :: < 5.00
C=C1C(=O)OC2CC3=C[C@@H](C/C(C)=C/C(OC(=O)C(CC)CCCC)[C@H]12)OC3=O (stereo partly drawn) [DETD-21] :: < 5.00
C=C1C(=O)OC2CC3=C[C@@H](C/C(C)=C/C(OC(=O)CC(C)(CC)OC(C)=O)[C@H]12)OC3=O (stereo partly drawn) [DETD-11] :: < 5.00
C=C1C(=O)OC2CC3=C[C@@H](C/C(C)=C/C(OC(=O)/C(C)=C/CC)[C@H]12)OC3=O (stereo partly drawn) [DETD-5] :: < 5.00
C=C1C(=O)OC2CC3=C[C@@H](C/C(C)=C/C(OC(=O)CCc4cccc5ccccc45)[C@H]12)OC3=O (stereo partly drawn) [DETD-51] :: < 5.00

Attention now turns to another entry.
Form: Entry = C=C1C(=O)OC2CC3=C[C@@H](C/C(C)=C/C(OC(=O)/C=C/c4cccc(C(F)(F)F)c4)[C@H]12)OC3=O (stereo partly drawn) [DETD-48] | System = MeWo (No NRAS or BRAF mutation) | pIC50 = ____
< 5.00

Numbers sourced from patent US10238631B2.
